# Test system: green peach aphid (Myzus persicae)
# test-method-notes: Green peach aphid (Myzus persicae), systemic artificial diet/membrane test
# Type: in vivo
# condition-context: 72 h, aphid mortality after 3 days, read-out: mortality in comparison with untreated controls
The reader will find reported mortality at 2500 ppm values listed item by item below.

Worked cases, answers included:
molecule	mortality at 2500 ppm
CC(Nc1noc2c(C(F)(F)F)cc(C(F)(F)F)cc12)c1ncnn1-c1ncccn1 (stereo not shown)	≥ 50%
CC(Nc1n[s+]([O-])c2c(Cl)cc(Cl)cc12)c1ncnn1-c1ncccn1 (stereo not shown)	≥ 50%
CCC(Nc1noc2c(C(F)(F)F)cc(C(F)(F)F)cc12)c1ncnn1-c1ncccn1 (stereo not shown)	≥ 50%

## Task Let me know recorded mortality at 2500 ppm for CC(NC1=NS(=O)(=O)c2c(Cl)cc(Cl)cc21)c1ncnn1-c1ncccn1 (stereo not shown) , thanks.
## Result ≥ 50%

## Task Kindly indicate its recorded mortality at 2500 ppm. Item: CC(Nc1nsc2c(Cl)cc(Cl)cc12)c1ncnn1-c1ncccn1 (stereo not shown)
## Result ≥ 50%

## Task Indicate its recorded mortality at 2500 ppm; the molecule in question is CC(c1ncnn1-c1ncccn1)N(CC1CC1)c1nnc2c(Cl)cc(C(F)(F)F)cn12 (stereo not shown)
## Result ≥ 50%

## Task For the molecule CC(Nc1noc2ncc(C(F)(F)F)cc12)c1ncnn1-c1ncccn1 (stereo not shown) , report mortality at 2500 ppm.
## Result ≥ 50%

* * *

# System: tobacco budworm (Heliothis virescens)
# test-method-notes: Tobacco budworm (Heliothis virescens), microtiter plate insect diet test
# Assay type: in vivo
# condition-context: 120 h, egg and larval mortality after 5 days, read-out: mortality in comparison with untreated controls
measurement-label: mortality at 2500 ppm

Here is how some molecules turned out for mortality at 2500 ppm.
molecule	endpoint-value
CCC(Nc1noc2c(C(F)(F)F)cc(C(F)(F)F)cc12)c1ncnn1-c1ncccn1 (centres unmarked)	≥ 50%
CC(Nc1nsc2c(Cl)cc(Cl)cc12)c1ncnn1-c1ncccn1 (centres unmarked)	≥ 50%

## Task Could you please provide reported mortality at 2500 ppm for CC(Nc1nn(C)c2ccc(C(F)(F)F)cc12)c1ncnn1-c1ncccn1 (centres unmarked) ? Thanks!
## Result ≥ 50%

## Task Query mortality at 2500 ppm for CC(Nc1noc2c(C(F)(F)F)cc(C(F)(F)F)cc12)c1ncnn1-c1ncccn1 (centres unmarked)
## Result ≥ 50%

## Task Kindly indicate its recorded mortality at 2500 ppm. Item: CC(Nc1c(C(F)(F)F)c(C(F)(F)C(F)(F)F)nn1C)c1ncnn1-c1ncccn1 (centres unmarked)
## Result ≥ 50%

Each recorded value in this set is attributed to patent US20230180754A1.
